Item-by-item account of normalized growth
experiment: chemical genetic growth profiling, strain panel (AID 1159580);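 note: tested at 20 µM; growth read once vehicle control cultures reached saturation at 30 °C; 1 = growth at the plate median or of vehicle wells; lower values mean less growth of the strain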; settings: S. cerevisiae deletion strains, growth OD, locus YNL307C, strain MCK1 (second series), active compounds read low
The campaign covered roughly 5,500 compounds. About 2,000 (36%) were called active. Inconclusive results (about 18%) are left out. This is one part of the list.
assayEndpoint: normalized growth

{"compound": "O=C(CCSc1cccs1)Nc1cccc(C(F)(F)F)c1", "assayEndpoint": "normalized growth", "obsValue": "0.88 (inactive)"}
{"compound": "COc1cc(C(=O)Oc2c(Cl)cc(Cl)cc2C=Nc2cccc(C(F)(F)F)c2)cc(OC)c1OC", "assayEndpoint": "normalized growth", "obsValue": "0.555 (active)"}
{"compound": "COCCOc1ccccc1NC(=S)SCCSC(=S)Nc1ccccc1OCCOC", "assayEndpoint": "normalized growth", "obsValue": "0.946 (inactive)"}
{"compound": "COc1cc(C(=O)Oc2c(Cl)cc(Cl)cc2C=Nc2ccc([N+](=O)[O-])cc2C#N)cc(OC)c1OC", "assayEndpoint": "normalized growth", "obsValue": "0.5 (active)"}
{"compound": "O=C(Nc1ccccn1)c1cc(-c2ccccc2)c(C(F)(F)F)s1", "assayEndpoint": "normalized growth", "obsValue": "0.897 (inactive)"}
{"compound": "Cc1onc(-c2ccccc2Cl)c1-c1nc2ccccc2c(=O)o1", "assayEndpoint": "normalized growth", "obsValue": "0.987 (inactive)"}
{"compound": "COc1cc(N=Cc2cc(Cl)cc(Cl)c2OC(=O)c2cc(OC)c(OC)c(OC)c2)c(OC)cc1Cl", "assayEndpoint": "normalized growth", "obsValue": "0.238 (active)"}
{"compound": "COc1cc(C(=O)Oc2c(Cl)cc(Cl)cc2C=Nc2cccc([N+](=O)[O-])c2)cc(OC)c1OC", "assayEndpoint": "normalized growth", "obsValue": "0.566 (active)"}
{"compound": "COc1cc(N=Cc2cc(Cl)cc(Cl)c2OS(=O)(=O)c2ccc(C)cc2)c(OC)cc1Cl", "assayEndpoint": "normalized growth", "obsValue": "0.921 (inactive)"}
{"compound": "OC(c1ccc(C(F)(F)F)cc1)c1cccc(C(F)(F)F)c1 (stereo not given)", "assayEndpoint": "normalized growth", "obsValue": "0.989 (inactive)"}

----------
Item-by-item account of normalized growth
test: chemical genetic growth profiling, strain panel (AID 1159580);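 note: tested at 20 µM; growth read once vehicle control cultures reached saturation at 30 °C; 1 = growth at the plate median or of vehicle wells; lower values mean less growth of the strain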; conditions: S. cerevisiae deletion strains, growth OD, locus YLR320W, strain mms22, active compounds read low
Among all 5,500 compounds or so, about 2,000 (36%) were called active. About 18% were inconclusive and are not listed. The list shows a part of the results.
assayEndpoint: normalized growth

{"molecule": "CCn1cc(C(=O)O)c(=O)c2cnc(N3CCCC3)nc21", "assayEndpoint": "normalized growth", "obsValue": 1.03}
{"molecule": "COc1ccc(-c2cc(C(F)F)nn2-c2ccc(S(N)(=O)=O)cc2)cc1F", "assayEndpoint": "normalized growth", "obsValue": 0.962}
{"molecule": "CC[C@]1(O)CC2CN(CCc3c([nH]c4ccccc34)[C@@](C(=O)OC)(c3cc4c(cc3OC)N(C=O)[C@H]3[C@@](O)(C(=O)OC)[C@H](OC(C)=O)[C@]5(CC)C=CCN6CC[C@]43[C@@H]65)C2)C1 (stereo partly specified)", "assayEndpoint": "normalized growth", "obsValue": 0.985}
{"molecule": "C[C@@H]1C[C@@H]([C@H](O)CC2CC(=O)NC(=O)C2)C(=O)[C@@H](C)C1", "assayEndpoint": "normalized growth", "obsValue": 0.0766}
{"molecule": "CCn1cc(C(=O)O)c(=O)c2cc3c(cc21)OCO3", "assayEndpoint": "normalized growth", "obsValue": 0.956}
{"molecule": "CCC(COC(=O)c1cc(OC)c(OC)c(OC)c1)(c1ccccc1)N(C)C (stereo unspecified)", "assayEndpoint": "normalized growth", "obsValue": 0.942}
{"molecule": "CCOc1ccc2c(c1)C(C)=CC(C)(C)N2", "assayEndpoint": "normalized growth", "obsValue": 0.982}
{"molecule": "CC1(C)O[C@@H]2CC3C4CCC5=CC(=O)C=C[C@]5(C)C4[C@@H](O)C[C@]3(C)[C@]2(C(=O)CO)O1 (stereo partly specified)", "assayEndpoint": "normalized growth", "obsValue": 1.01}
{"molecule": "c1ccc2[nH]c(-c3cscn3)nc2c1", "assayEndpoint": "normalized growth", "obsValue": 0.899}
{"molecule": "Nc1nc2ncc(CNc3ccc(C(=O)N[C@@H](CCC(=O)O)C(=O)O)cc3)nc2c(=O)[nH]1", "assayEndpoint": "normalized growth", "obsValue": 0.992}
{"molecule": "C[C@@H]1CC2C3CCC4=CC(=O)C=C[C@]4(C)[C@@]3(F)[C@@H](O)C[C@]2(C)[C@@]1(O)C(=O)COP(=O)(O)O (stereo partly specified)", "assayEndpoint": "normalized growth", "obsValue": 1.01}
{"molecule": "CC[C@@]1(C2O[C@@H](C3O[C@@](O)(CC)[C@H](C)C[C@@H]3C)C[C@@H]2C)CC[C@H]([C@]2(C)CCC3(C[C@H](O)[C@@H](C)[C@@H]([C@H](C)[C@@H](OC)[C@H](C)C(=O)O)O3)O2)O1 (stereo partly specified)", "assayEndpoint": "normalized growth", "obsValue": 1.02}
{"molecule": "CC12CCC3C(CC=C4CC(O)CCC43C)C1CCC2=O (stereo unspecified)", "assayEndpoint": "normalized growth", "obsValue": 0.429}
{"molecule": "CC[C@@H](C(=O)[C@@H](C)[C@@H](O)[C@H](C)[C@@H]1O[C@@H]([C@@H](CC)C(=O)O)CC[C@@H]1C)[C@H]1OC2(C=C[C@@H](O)[C@]3(CC[C@@](C)([C@H]4CC[C@](O)(CC)[C@H](C)O4)O3)O2)[C@H](C)C[C@@H]1C (stereo partly specified)", "assayEndpoint": "normalized growth", "obsValue": 0.928}
{"molecule": "CN1CCc2cccc3c2C1Cc1ccc(O)c(O)c1-3 (stereo unspecified)", "assayEndpoint": "normalized growth", "obsValue": 0.8}
{"molecule": "COS(C)(=O)=O", "assayEndpoint": "normalized growth", "obsValue": 0.954}
{"molecule": "NCCCCN=C(N)N", "assayEndpoint": "normalized growth", "obsValue": 1.02}
{"molecule": "c1cc2c(cc1[C@H]1OC[C@H]3[C@@H]1CO[C@H]3c1ccc3c(c1)OCO3)OCO2", "assayEndpoint": "normalized growth", "obsValue": 0.732}
{"molecule": "COP(=S)(OC)Oc1ccc(SC)c(C)c1", "assayEndpoint": "normalized growth", "obsValue": 0.857}
{"molecule": "CCn1cc(C(=O)O)c(=O)c2ccc(C)nc21", "assayEndpoint": "normalized growth", "obsValue": 0.976}
{"molecule": "CS(=O)(=O)OCCCCOS(C)(=O)=O", "assayEndpoint": "normalized growth", "obsValue": 0.999}
{"molecule": "O=C(O)c1ccc2c(c1)OCO2", "assayEndpoint": "normalized growth", "obsValue": 1.03}
{"molecule": "CC(=O)OCC(=O)[C@@]12OC(C)(C)O[C@@H]1CC1C3C[C@H](F)C4=CC(=O)C=C[C@]4(C)[C@@]3(F)[C@@H](O)C[C@@]12C (stereo partly specified)", "assayEndpoint": "normalized growth", "obsValue": 1.06}
{"molecule": "COc1cc2c(cc1O)CC1c3c(cc(O)c(OC)c3-2)CCN1C (stereo unspecified)", "assayEndpoint": "normalized growth", "obsValue": 1.02}
{"molecule": "O=c1cccc2n1C[C@H]1CNCC2C1", "assayEndpoint": "normalized growth", "obsValue": 0.974}
{"molecule": "O=C(O)P(=O)(O)O", "assayEndpoint": "normalized growth", "obsValue": 0.967}

----------
test: chemical genetic growth profiling, strain panel (AID 1159580);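 note: tested at 20 µM; growth read once vehicle control cultures reached saturation at 30 °C; 1 = growth at the plate median or of vehicle wells; lower values mean less growth of the strain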; settings: S. cerevisiae deletion strains, growth OD, locus YDR069C, strain doa4, active compounds read low
The campaign covered roughly 5,500 compounds. About 2,000 (36%) were called active. Inconclusive results (about 18%) are left out. The list shows a part of the results.
Please assign n whenever normalized growth is at or above 1, and y whenever it is below.

{"compound": "CCOC(=O)C(C)(N)Cc1ccc(O)c(O)c1 (stereo not given)", "label": "y"}
{"compound": "CCOC(=O)C1=C[C@]2(CC)CCCN3CCc4c(n1c1ccccc41)[C@@H]32", "label": "n"}

----------
assay: chemical genetic growth profiling, strain panel (AID 1159580);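 note: tested at 20 µM; growth read once vehicle control cultures reached saturation at 30 °C; 1 = growth at the plate median or of vehicle wells; lower values mean less growth of the strain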; conditions: S. cerevisiae deletion strains, growth OD, locus YDR334W, strain swr1, active compounds read low
Among all 5,500 compounds or so, about 2,000 (36%) were called active. Another 18% or so got no clear call; they are omitted. The list shows a part of the results.

{"molecule": "C=CC1=C(C)/C(=C/c2[nH]c(Cc3[nH]c(/C=C4\\NC(=O)C(C)=C4C=C)c(C)c3CCC(=O)O)c(CCC(=O)O)c2C)NC1=O", "normalized growth": 0.955}
{"molecule": "CC[C@]12CCCN3CCc4c(n(c5ccccc45)C(=O)C1)[C@@H]32", "normalized growth": 1}
{"molecule": "O=C(O)c1cc(=O)c(O)c2c(O)c(O)ccc2c1", "normalized growth": 0.984}
{"molecule": "O=C(O)c1cc(=O)c(O)c2c(O)c(O)c(O)cc2c1", "normalized growth": 0.353}
{"molecule": "O=C(NC(Cc1cc(=O)[nH]c2ccccc12)C(=O)O)c1ccc(Cl)cc1 (stereo not given)", "normalized growth": 1.02}
